Data credit: patent US12559506B2

Target Of Assay: wildtype LRRK2 (Homo sapiens, UniProt Q5S007)
Construct: expressed in transfected cells; host or cells: HEK293 (ATCC CRL-1573), transient transfection, mammalian expression vector with ubiquitin promoter
Sequence (Q5S007 whole entry): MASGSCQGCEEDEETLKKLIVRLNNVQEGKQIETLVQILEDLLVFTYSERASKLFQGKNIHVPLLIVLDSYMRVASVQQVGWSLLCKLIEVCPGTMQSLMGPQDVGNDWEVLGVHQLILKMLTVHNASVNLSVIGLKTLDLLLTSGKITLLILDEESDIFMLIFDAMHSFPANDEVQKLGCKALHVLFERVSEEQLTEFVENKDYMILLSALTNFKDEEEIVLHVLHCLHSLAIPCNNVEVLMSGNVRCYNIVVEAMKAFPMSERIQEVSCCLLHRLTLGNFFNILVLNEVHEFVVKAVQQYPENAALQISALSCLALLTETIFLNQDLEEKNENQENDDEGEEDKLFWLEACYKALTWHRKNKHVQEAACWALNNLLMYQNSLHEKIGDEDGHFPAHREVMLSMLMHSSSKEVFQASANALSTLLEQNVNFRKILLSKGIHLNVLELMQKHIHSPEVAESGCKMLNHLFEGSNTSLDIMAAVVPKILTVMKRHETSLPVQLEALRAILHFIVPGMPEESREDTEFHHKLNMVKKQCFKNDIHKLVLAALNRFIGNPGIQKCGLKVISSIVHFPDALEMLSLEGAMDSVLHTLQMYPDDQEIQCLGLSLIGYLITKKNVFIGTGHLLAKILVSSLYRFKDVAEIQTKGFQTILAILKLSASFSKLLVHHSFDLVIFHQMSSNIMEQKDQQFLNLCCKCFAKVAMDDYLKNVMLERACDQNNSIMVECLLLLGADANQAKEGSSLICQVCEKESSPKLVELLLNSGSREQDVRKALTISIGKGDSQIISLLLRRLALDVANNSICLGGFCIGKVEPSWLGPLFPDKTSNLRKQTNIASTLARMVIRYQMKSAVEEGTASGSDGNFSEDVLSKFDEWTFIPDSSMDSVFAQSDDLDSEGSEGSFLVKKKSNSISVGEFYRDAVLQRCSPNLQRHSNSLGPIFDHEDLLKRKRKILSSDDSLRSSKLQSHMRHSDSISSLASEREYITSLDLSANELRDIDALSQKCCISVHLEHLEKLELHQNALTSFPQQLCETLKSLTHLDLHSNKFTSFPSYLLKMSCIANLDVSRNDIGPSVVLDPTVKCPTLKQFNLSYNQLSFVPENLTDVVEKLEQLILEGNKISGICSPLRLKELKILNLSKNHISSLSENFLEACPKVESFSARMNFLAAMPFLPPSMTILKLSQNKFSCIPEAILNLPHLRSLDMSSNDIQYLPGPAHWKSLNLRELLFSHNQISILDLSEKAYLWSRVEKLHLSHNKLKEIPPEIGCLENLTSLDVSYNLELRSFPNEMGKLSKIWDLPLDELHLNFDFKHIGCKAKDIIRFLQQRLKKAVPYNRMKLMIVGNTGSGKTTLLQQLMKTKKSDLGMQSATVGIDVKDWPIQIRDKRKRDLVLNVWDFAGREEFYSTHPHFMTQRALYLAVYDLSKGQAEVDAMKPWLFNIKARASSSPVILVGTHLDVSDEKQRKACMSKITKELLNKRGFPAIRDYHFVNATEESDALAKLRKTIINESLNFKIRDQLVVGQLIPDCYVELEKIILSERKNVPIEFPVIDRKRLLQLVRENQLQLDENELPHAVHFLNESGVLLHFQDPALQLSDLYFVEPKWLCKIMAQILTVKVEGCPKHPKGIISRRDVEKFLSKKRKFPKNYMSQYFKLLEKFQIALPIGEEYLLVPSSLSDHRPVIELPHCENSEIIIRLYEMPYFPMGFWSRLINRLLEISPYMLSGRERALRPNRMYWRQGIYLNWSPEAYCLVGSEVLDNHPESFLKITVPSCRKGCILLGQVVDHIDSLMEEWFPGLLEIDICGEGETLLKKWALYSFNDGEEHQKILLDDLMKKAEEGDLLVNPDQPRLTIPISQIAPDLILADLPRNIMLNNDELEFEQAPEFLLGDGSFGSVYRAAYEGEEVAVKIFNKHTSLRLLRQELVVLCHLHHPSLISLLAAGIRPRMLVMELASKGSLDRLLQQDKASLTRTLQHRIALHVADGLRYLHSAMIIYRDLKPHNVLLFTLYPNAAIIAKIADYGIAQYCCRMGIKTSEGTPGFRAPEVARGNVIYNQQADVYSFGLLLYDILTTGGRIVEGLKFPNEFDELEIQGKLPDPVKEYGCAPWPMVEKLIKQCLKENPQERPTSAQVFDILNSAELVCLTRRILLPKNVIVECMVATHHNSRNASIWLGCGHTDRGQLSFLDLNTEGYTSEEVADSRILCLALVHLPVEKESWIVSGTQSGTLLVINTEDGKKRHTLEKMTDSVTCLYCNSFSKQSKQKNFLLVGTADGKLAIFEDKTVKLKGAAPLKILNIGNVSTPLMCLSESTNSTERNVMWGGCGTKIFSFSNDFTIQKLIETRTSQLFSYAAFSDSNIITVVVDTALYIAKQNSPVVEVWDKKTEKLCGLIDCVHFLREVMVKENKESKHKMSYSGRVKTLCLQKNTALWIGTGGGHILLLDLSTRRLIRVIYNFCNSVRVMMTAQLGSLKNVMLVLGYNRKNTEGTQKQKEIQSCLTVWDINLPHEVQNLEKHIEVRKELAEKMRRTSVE
Test: LRRK2 degradation assay, HiBit-tagged wildtype LRRK2 expressed from plasmid in HEK293 cells (Nano-Glo Dual-Luciferase)
Format: cell-based
Cond: HiBit-tagged wildtype LRRK2, HEK293 cells, 24 hours; read-out: *WT DC50
Observation Type: DC50

Any idea what DC50 came out for CC1(Oc2ccc3[nH]nc(-c4cc(N5CCN(C[C@@H]6CN(CC7CCN(c8ccc9c(c8)C(=O)N(C8CCC(=O)NC8=O)C9=O)CC7)CCO6)CC5)ncn4)c3c2)CC1 (stereo partly drawn) on wildtype LRRK2 (Homo sapiens, UniProt Q5S007)?
< 10 nM

Any idea what DC50 came out for CC1(Oc2ccc3[nH]nc(-c4ccnc(N5CC6(CCN6CC6CCN(CC7CCN(c8ccc9c(c8)C(=O)N(C8CCC(=O)NC8=O)C9=O)CC7)CC6)C5)c4)c3c2)CC1 (stereo not drawn) on wildtype LRRK2 (Homo sapiens, UniProt Q5S007)?
10 to 50 nM

Any idea what DC50 came out for CC1(Oc2ccc3[nH]nc(-c4cc(N5CCN(C[C@H]6CN(CC7CCN(c8ccc9c(c8)C(=O)N(C8CCC(=O)NC8=O)C9=O)CC7)CCO6)CC5)ncn4)c3c2)CC1 (stereo partly drawn) on wildtype LRRK2 (Homo sapiens, UniProt Q5S007)?
< 10 nM

====

Answer each item with its documented Dmax.
Target Of Assay: wildtype LRRK2 (Homo sapiens)
Construct: expressed in transfected cells; host or cells: HEK293 (ATCC CRL-1573), transient transfection, mammalian expression vector with ubiquitin promoter
Test: LRRK2 degradation assay, HiBit-tagged wildtype LRRK2 expressed from plasmid in HEK293 cells (Nano-Glo Dual-Luciferase)
Format: cell-based
Cond: HiBit-tagged wildtype LRRK2 in HEK293 cells, 24 hours; read-out: **WT Dmax (%)

I would be grateful if you could share the reported Dmax for CC1(Oc2ccc3[nH]nc(-c4cc(N5CCC(CC6CCN(C(=O)C7CCN(c8ccc9c(c8)C(=O)N(C8CCC(=O)NC8=O)C9=O)CC7)CC6)CC5)ncn4)c3c2)CC1 (centres unmarked) .
50 to 70%

I would be grateful if you could share the reported Dmax for CC1(Oc2ccc3n[nH]c(-c4cc(N5CCC(CN6CCN(CC7(F)CN(c8ccc9c(c8)C(=O)N(C8CCC(=O)NC8=O)C9=O)C7)CC6)CC5)ncn4)c3c2)CC1 (centres unmarked) .
50 to 70%

I would be grateful if you could share the reported Dmax for CC1(Oc2ccc3n[nH]c(-c4cc(N5CCC(COC6CCN(CC7CCN(c8ccc9c(c8)C(=O)N(C8CCC(=O)NC8=O)C9=O)CC7)CC6)CC5)ncn4)c3c2)CC1 (centres unmarked) .
≥ 70%

I would be grateful if you could share the reported Dmax for CC1(Oc2ccc3[nH]nc(-c4cc(N5CCN(CC6CCN(CCCCNc7cccc8c7CN(C7CCC(=O)NC7=O)C8=O)CC6)CC5)ncn4)c3c2)CC1 (centres unmarked) .
< 50%

I would be grateful if you could share the reported Dmax for C[C@H]1CN(c2cc(-c3n[nH]c4ccc(OC5(C)CC5)cc34)ncn2)CCN1CCC1(F)CCN(CC2CCN(c3ccc4c(c3)C(=O)N(C3CCC(=O)NC3=O)C4=O)CC2)CC1 (some centres unmarked) .
50 to 70%
